assay.info: Solubility in simulated gastric fluid.
Format: physicochemical
condition.details: read-out: S
Assign solubility to each entry below.
Dear colleague, please send the value followed by its unit.

Look over these answered cases.
> print(dat)
                                   compound  readout.kind  endpoint.result
1  Cc1oc(-c2ccccc2)nc1CCOc1ccc(CC(Nc2ccccc2C(=O)c2cccnc2)C(=O)O)cc1 (centres undefined)    solubility         18 µg/mL
2  Cc1oc(-c2ccccc2)nc1CCOc1ccc(CC(Nc2ccccc2C(=O)c2ccc(CO)cc2)C(=O)O)cc1 (centres undefined)    solubility         22 µg/mL

// each listed compound needs a value for solubility
1. Cc1oc(-c2ccccc2)nc1CCOc1ccc(C[C@@H](Nc2ccccc2C(=O)C2CCCCC2)C(=O)O)cc1
2. Cc1oc(-c2ccccc2)nc1CCOc1ccc(CC(Nc2ccccc2C(=O)c2cccc(CN(C)C)c2)C(=O)O)cc1 (centres undefined)

### Response
1: 2 µg/mL; 2: 9 µg/mL
